Each recorded value in this set is attributed to the supplement of paper PMC10567573.

B1: MATN2 (parent)
chain: FSLKTFKRKSEVERAVKRMRHLST

# Variants of: B1
# assay_notes: protein stability index of a GFP-peptide fusion (GPS, HEK-293T) (PSI 1-6); higher = more stable;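 further: lentivirally expressed fusions sorted by FACS into six bins by GFP to DsRed ratio, PSI derived from sequencing read proportions per bin multiplied by bin number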
# setup_conditions: c terminus: a fixed tail appended
Grouping key: protein stability index. Bins: low interval: < 2; middle interval: ≥ 2 and < 3; high interval: ≥ 3

Given E11H , name the class its protein stability index places it in.
middle interval

Given L3W , name the class its protein stability index places it in.
high interval

Given F6K , name the class its protein stability index places it in.
high interval

Given R20N , name the class its protein stability index places it in.
middle interval

Given M19V , name the class its protein stability index places it in.
middle interval

Given V12H , name the class its protein stability index places it in.
middle interval

Given S10A , name the class its protein stability index places it in.
low interval

Given F6W , name the class its protein stability index places it in.
low interval

Given L22Q , name the class its protein stability index places it in.
middle interval

Given V16Y , name the class its protein stability index places it in.
middle interval

Given M19E , name the class its protein stability index places it in.
high interval

Given A15S , name the class its protein stability index places it in.
middle interval

Given A15H , name the class its protein stability index places it in.
middle interval

Given K17F , name the class its protein stability index places it in.
low interval

Given S10W , name the class its protein stability index places it in.
middle interval

Given E11C , name the class its protein stability index places it in.
low interval

Given R8I , name the class its protein stability index places it in.
middle interval

Given H21A , name the class its protein stability index places it in.
middle interval

Given K4A , name the class its protein stability index places it in.
low interval

Given K9A , name the class its protein stability index places it in.
low interval
